measurement-target: T1, RAD52 full length (human, UniProt P43351 1-418)
T1 sequence: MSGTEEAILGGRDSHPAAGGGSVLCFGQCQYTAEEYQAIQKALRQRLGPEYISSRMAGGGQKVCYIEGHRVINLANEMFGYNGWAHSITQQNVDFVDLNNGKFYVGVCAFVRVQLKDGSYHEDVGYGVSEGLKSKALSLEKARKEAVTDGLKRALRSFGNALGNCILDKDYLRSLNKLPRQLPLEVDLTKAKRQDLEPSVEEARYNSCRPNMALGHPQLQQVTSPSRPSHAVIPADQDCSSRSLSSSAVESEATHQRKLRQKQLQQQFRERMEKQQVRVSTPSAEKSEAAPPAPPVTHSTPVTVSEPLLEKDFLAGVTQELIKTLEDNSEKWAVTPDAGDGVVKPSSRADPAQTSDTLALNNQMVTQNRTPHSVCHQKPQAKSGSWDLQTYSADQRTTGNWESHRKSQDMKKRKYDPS
test-method-notes: EMSA; 25 C; Hill 1.4 ± 0.2; EMSA: 25 mM Tris-acetate, 2 mM Mg(OAc)2, 1 mM DTT, pH 7.5, 10 nM ssDNA, 25 C 10 min or 37 C 5 min; mass photometry: 20 mM Tris-HCl, 50 mM NaCl, pH 7.5
reported-conditions: protein: recombinant; tags: His-tag (pET-15b)
property: Kd (nM)

>>> print(df.to_string())
                                     binder  unit_name  value_reported
0  GCTCTAAGCCATCCGCAAAAATGACCTCTTAT (ssDNA) [32 nt]         nM             115
